biological target: human IDO1 (Homo sapiens); test: HEK Human IDO-1 inhibition assay (kynurenine readout, Ehrlich reagent, absorbance 490 nm); settings: human IDO1/HEK293 cells, incubated 20 hours with compound; 500 nM reference standard = 100% inhibition
Sequence (P14902 whole entry): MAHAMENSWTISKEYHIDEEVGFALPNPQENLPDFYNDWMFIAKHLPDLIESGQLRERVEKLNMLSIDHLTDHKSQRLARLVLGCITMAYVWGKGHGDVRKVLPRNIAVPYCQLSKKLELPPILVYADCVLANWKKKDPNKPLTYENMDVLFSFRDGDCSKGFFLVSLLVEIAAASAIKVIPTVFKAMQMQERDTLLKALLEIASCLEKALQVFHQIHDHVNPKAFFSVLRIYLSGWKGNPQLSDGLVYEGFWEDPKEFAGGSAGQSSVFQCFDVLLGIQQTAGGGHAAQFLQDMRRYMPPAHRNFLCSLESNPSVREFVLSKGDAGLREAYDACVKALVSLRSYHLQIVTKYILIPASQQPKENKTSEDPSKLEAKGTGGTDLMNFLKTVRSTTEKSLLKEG
REPORTED_ENDPOINT: IC50

{"COMPOUND": "CC(C)CN(c1ccc(OCC(=O)O)cc1Nc1nc2ccccc2o1)C1CCCCC1", "SYSTEM_TESTED": "human IDO1 (Homo sapiens)", "REPORTED_ENDPOINT": "IC50", "READOUT_VALUE": "≥ 100 nM"}
{"COMPOUND": "CC(C)CN(c1ccc(OC(C)C(=O)O)cc1NC(=O)Nc1ccccc1F)C1CCCCC1 (single isomer, unassigned)", "SYSTEM_TESTED": "human IDO1 (Homo sapiens)", "REPORTED_ENDPOINT": "IC50", "READOUT_VALUE": "< 5 nM"}
{"COMPOUND": "CC(C)CN(c1ccc(OCC(=O)O)cc1NC(=O)Nc1nncs1)C1CCCCC1", "SYSTEM_TESTED": "human IDO1 (Homo sapiens)", "REPORTED_ENDPOINT": "IC50", "READOUT_VALUE": "≥ 100 nM"}
{"COMPOUND": "CC(C)CN(c1ccc(OC(C)C(=O)O)cc1NC(=O)Cc1ccc(Cl)c(F)c1)C1CCCCC1 (racemic)", "SYSTEM_TESTED": "human IDO1 (Homo sapiens)", "REPORTED_ENDPOINT": "IC50", "READOUT_VALUE": "< 100 nM"}
{"COMPOUND": "CC(C)CN(c1cc(F)c(OCC(=O)O)cc1NC(=O)Nc1ccc(Cl)cc1F)C1CCCCC1", "SYSTEM_TESTED": "human IDO1 (Homo sapiens)", "REPORTED_ENDPOINT": "IC50", "READOUT_VALUE": "< 5 nM"}
{"COMPOUND": "CC(C)CN(c1ccc(OCC(=O)O)cc1NC(=O)Nc1ccc(Cl)c(F)c1)C1CCCCC1", "SYSTEM_TESTED": "human IDO1 (Homo sapiens)", "REPORTED_ENDPOINT": "IC50", "READOUT_VALUE": "< 100 nM"}
{"COMPOUND": "CC(C)CN(c1ccc(OCC(=O)O)cc1NC(=O)Nc1ccon1)C1CCCCC1", "SYSTEM_TESTED": "human IDO1 (Homo sapiens)", "REPORTED_ENDPOINT": "IC50", "READOUT_VALUE": "≥ 100 nM"}
{"COMPOUND": "CCCC(Oc1ccc(N(CC(C)C)C2CCCCC2)c(NC(=O)Nc2ccc(C)cc2)c1)C(=O)O (single isomer, unassigned) [Example 86-2]", "SYSTEM_TESTED": "human IDO1 (Homo sapiens)", "REPORTED_ENDPOINT": "IC50", "READOUT_VALUE": "< 5 nM"}

human IDO1 (Homo sapiens) IC50 of CC(C)CN(c1ccc(OC(C)C(=O)NS(=O)(=O)C2CC2)cc1NC(=O)Cc1ccc(Cl)cc1F)C1CCCCC1 (racemic) is < 100 nM

Lab note: compound CCC(Oc1ccc(N(CC(C)C)C2CCCCC2)c(NC(=O)Nc2ccc(C)cc2)c1)C(=O)O (single isomer, unassigned) [Example 82-1] tested on human IDO1 (Homo sapiens); recorded IC50 was < 5 nM

Query "CC(C)CN(c1ncc(OCC(=O)NS(=O)(=O)C2CC2)cc1NC(=O)Nc1ccc(Cl)cc1F)C1CCCCC1" on human IDO1 (Homo sapiens); IC50 returned: < 5 nM

Just for reference, patent US10689331B2 is where these values come from.
